MEASURED ON: GST-Nv-NF-kB (Cys allele) (Nematostella vectensis, UniProt E5G601 2-411)
Sequence: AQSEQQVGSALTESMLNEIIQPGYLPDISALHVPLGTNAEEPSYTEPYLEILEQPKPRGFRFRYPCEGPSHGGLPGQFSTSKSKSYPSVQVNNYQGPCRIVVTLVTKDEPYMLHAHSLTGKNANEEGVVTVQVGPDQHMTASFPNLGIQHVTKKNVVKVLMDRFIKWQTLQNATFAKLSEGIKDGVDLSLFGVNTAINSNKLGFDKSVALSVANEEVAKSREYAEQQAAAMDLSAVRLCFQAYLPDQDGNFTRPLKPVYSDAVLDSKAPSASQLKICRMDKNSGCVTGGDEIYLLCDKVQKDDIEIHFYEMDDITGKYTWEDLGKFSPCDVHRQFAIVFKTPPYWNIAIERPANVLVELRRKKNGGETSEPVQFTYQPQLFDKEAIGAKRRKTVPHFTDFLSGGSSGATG
METHOD DESCRIPTION: protein-binding microarray (PBM); PBM: ~300 nM protein, 6 mM HEPES pH 7.8, 80 mM KCl, 0.5 mM EDTA, 0.5 mM EGTA, 6% glycerol, 35 ng/ul poly-dIdC, 1% milk, 1 h, room temperature; Ap Aiptasia and Nv Nematostella (sea anemones) / Co Capsaspora / Aq Amphimedon (sponge) / Dm Drosophila / Hu human; RHD is the Rel homology domain; high values mean tight binding
TEST CONDITIONS: dsDNA, one strand shown
REPORTED METRIC: binding signal (z-score)
Report the value in z-score with no unit label.

Below, each entry is followed by its recorded binding signal result.
Given the entry CCGATTAACATCAGCCCCCCCCCTGATGTTAATCGGGTCTTGATTCGCTTGACGCTGCTG , report its measured binding signal.
5.13

Thanks! And CCGATTAACATCAAGGGGATTTATGATGTTAATCGGGTCTTGATTCGCTTGACGCTGCTG ?
9.15

Could you do the same for CCGATTAACATCAGGGGACCCCCTGATGTTAATCGGGTCTTGATTCGCTTGACGCTGCTG , please?
6.03

Query CCGATTAACATCAGGGGAAAGACTGATGTTAATCGGGTCTTGATTCGCTTGACGCTGCTG next
6.57

New cases:
// lookup binding signal for CCGATTAACATCACTTTTCCCCCTGATGTTAATCGGGTCTTGATTCGCTTGACGCTGCTG
7.4

Could you do the same for CCGATTAACATCAGGCGTTCCCCTGATGTTAATCGGGTCTTGATTCGCTTGACGCTGCTG , please?
6.01

Now consider CCGATTAACATCAGGGTATTTTATGATGTTAATCGGGTCTTGATTCGCTTGACGCTGCTG and answer again.
8.31

Now the same for CCGATTAACATCAGGGAGTTCACTGATGTTAATCGGGTCTTGATTCGCTTGACGCTGCTG
2.42

Now consider CCGATTAACATCAGGGGTAAAACTGATGTTAATCGGGTCTTGATTCGCTTGACGCTGCTG and answer again.
1.97
